STUDY SYSTEM: Prothrombin (Homo sapiens)
RESULT TYPE: Ki (µM)
Use µM as the unit, but write only the number.

Record summary for N=C(N)c1cc2ccccc2s1 [Benzo[b]thiophene-2-carboxamidine] : reported Ki = 58

----------
STUDY SYSTEM: UniProt:P00742
Sequence (P00742 41-179 limits assumed): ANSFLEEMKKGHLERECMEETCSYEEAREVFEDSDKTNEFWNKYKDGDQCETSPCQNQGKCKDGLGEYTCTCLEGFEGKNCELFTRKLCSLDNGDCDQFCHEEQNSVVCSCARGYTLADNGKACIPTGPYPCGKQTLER
Sequence (P00742 235-488 limits assumed): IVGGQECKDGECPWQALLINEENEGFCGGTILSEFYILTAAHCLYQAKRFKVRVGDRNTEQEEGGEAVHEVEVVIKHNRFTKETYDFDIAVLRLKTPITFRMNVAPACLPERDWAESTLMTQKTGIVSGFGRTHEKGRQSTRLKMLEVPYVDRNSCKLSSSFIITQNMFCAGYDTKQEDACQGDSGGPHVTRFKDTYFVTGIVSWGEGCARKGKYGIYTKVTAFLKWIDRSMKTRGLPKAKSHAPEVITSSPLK
RESULT TYPE: pKi
# pKi = -log10(concentration in molar units)

The compound listed as N=C(N)c1cc2cccnc2s1 has a reported pKi of 3.44

N=C(N)c1cc2c(I)cccc2s1 [CA-01] has a reported pKi of 4.52

New cases:
Item: N=C(N)c1cc2ccccc2s1 [Benzo[b]thiophene-2-carboxamidine] | pKi: 4.68
